Provide the recorded logP for the entries that follow.
Assay: Octanol-water partition coefficient, log P of the compound
Assay type: physicochemical
Numbers only.

test_smiles=CCCCN1C(=O)C2=C(N=C(c3cc(S(=O)(=O)N4CCN(C)CC4)ccc3OCC)NC2)C1=O endpoint_value=0.984
test_smiles=CCCc1nn(C)c2c(=O)[nH]c(-c3cc(S(=O)(=O)N4CCN(C)CC4)ccc3OCC)nc12 endpoint_value=2.51

Shift focus to the following entry.
Query block: Tell me its logP given CCCCN1C(=O)[C@H]2CNC(c3cc(S(=O)(=O)N4CCN(CC)CC4)ccc3OCC)=NN2C1=O as the entry.
Result block: 1.25

###

Experiment: Octanol-water partition coefficient, log P of the compound
Format: physicochemical
Hi! Just check whether logP is below 0.8. Below gives class 1, equal or above gives class 0.

Please review the entries below; each comes with its answer.
test_smiles=CN1CC(=O)N2[C@H](c3ccc4c(c3)OCO4)c3[nH]c4ccccc4c3C[C@@H]2C1=O cat="class 0"
test_smiles=CCCc1nc(C)c2c(=O)[nH]c(-c3cc(S(=O)(=O)N4CCN(CC)CC4)ccc3OCC)nn12 cat="class 0"
test_smiles=CCCCN1C(=O)[C@H]2CC=C(c3cc(S(=O)(=O)N4CCN(CC)CC4)ccc3OCC)CN2C1=O cat="class 0"
test_smiles=CCCCN1C(=O)[C@H]2C(=O)NC(c3cc(S(=O)(=O)N4CCN(CC)CC4)ccc3OCC)=NN2C1=O cat="class 1"
test_smiles=CCOc1ccc(S(=O)(=O)N2CCN(C)CC2)cc1C1=CC[C@@H]2C(=O)N(C)CC(=O)N2C1 cat="class 1"
test_smiles=CCCCN1C(=O)c2nc(-c3cc(S(=O)(=O)N4CCN(C)CC4)ccc3OCC)[nH]c(=O)c2C1=O cat="class 0"

Then this compound:
Query block: Regarding CCCCN1C(=O)[C@H]2CC=C(c3cc(S(=O)(=O)N4CCN(C)CC4)ccc3OCC)CN2C1=O , kindly confirm whether its logP is beneath 0.8.
Result block: class 0

Cited source for all entries: ChEMBL document CHEMBL1156541
